# TESTED_ON: interaction between p53 and MDM2 proteins (recombinant GST-tagged MDM2, biotinylated p53 peptide) (Homo sapiens, UniProt Q00987)
# Sequence (Q00987 whole entry): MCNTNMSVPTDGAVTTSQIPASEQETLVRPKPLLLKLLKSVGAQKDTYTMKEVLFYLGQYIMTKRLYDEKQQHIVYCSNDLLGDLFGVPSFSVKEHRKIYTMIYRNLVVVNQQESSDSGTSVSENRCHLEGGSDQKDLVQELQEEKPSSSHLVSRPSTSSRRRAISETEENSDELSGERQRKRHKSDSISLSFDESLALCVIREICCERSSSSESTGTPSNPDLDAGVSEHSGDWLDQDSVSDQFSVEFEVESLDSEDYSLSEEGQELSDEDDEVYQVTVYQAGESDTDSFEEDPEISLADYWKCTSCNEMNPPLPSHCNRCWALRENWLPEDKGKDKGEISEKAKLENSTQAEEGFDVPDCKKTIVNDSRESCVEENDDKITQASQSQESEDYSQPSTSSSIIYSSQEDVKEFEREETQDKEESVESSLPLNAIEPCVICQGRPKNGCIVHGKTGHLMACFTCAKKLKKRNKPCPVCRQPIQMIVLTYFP
# ASSAY_COMMENT: HTRF assay of inhibition of the p53-MDM2 interaction
# CONDITION_DESCRIPTION: bsa: 0.02%
# Description: The ability of the compounds to inhibit the interaction between p53 and MDM2 proteins was measured by an HTRF (homogeneous time-resolved fluorescence) assay in which recombinant GST-tagged MDM2 binds to a peptide that resembles the MDM2-interacting region of p53 (Lane et al.). […]
PROPERTY_NAME: IC50 (nM)
Express the result in nM but write the number alone.

[Q] Answer with the recorded IC50 of CC(C)(C)C[C@@H]1CN(C(=O)Nc2cccc(-c3nnn[nH]3)c2)[C@H](c2cccc(Cl)c2F)[C@@]1(C#N)c1ccc(Cl)cc1F (racemic) only.
[A] 3230

[Q] Answer with the recorded IC50 of CC(C)(C)C[C@@H]1CN(C(=O)NCC[C@H](O)CO)[C@H](c2cccc(Cl)c2F)[C@@]1(C#N)c1ccc(Cl)cc1F (mixture of isomers) only.
[A] 269

[Q] Answer with the recorded IC50 of CC(C)(C)C[C@@H]1CN(C(=O)c2ccc(C(=O)O)cc2)[C@H](c2cccc(Cl)c2F)[C@@]1(C#N)c1ccc(Cl)cc1F (racemic) only.
[A] 644

[Q] Answer with the recorded IC50 of CC(C)(C)C[C@@H]1CN(C(=O)Nc2ccncc2)[C@H](c2cccc(Cl)c2F)[C@@]1(C#N)c1ccc(Cl)cc1F (racemic) only.
[A] 1730
